Give GI50 for every item shown.
# Test system: SF-539
# Protocol: NCI tumour cell line growth inhibition, 48 h
The source made the active and inactive calls. No stated cut-off is given here; in the data, active = GI50 up to about 1.1 µM and inactive = higher.

# lookup: GI50 of `CSCC(COC(C)=O)(CSC)c1ccncc1`
> 100 µM (inactive)

# lookup: GI50 of `N#CC(C#N)=C(N)/C(C#N)=C\c1ccnc2ccccc12`
15.1 µM (inactive)

# lookup: GI50 of CN[C@@H](C)[C@H](OP(=O)(O)OC1[C@@H](O)[C@H](O)C(O)[C@H](O)[C@@H]1O)c1ccccc1 (stereo partly specified)
16.3 µM (inactive)

# lookup: GI50 of `OCc1c2c(cc3c1CC1(C3)Cc3cc4c(c(CO)c3C1)CCC4)CCC2`
17.4 µM (inactive)

# lookup: GI50 of O=C(Nc1nnc(-c2ccccc2)o1)C(SC(=S)N1CCCC1)c1ccccc1 (stereo unspecified)
34.2 µM (inactive)

# lookup: GI50 of `CCCCc1c2c(nc3c1CCC/C3=C\c1ccccc1)C(=O)CCC2`
18.4 µM (inactive)

# lookup: GI50 of COC(=O)C(/C(=N/NC(N)=O)C(=O)Nc1c(C)cccc1C(C)(C)C)c1nc2ccc(Cl)cc2nc1O (stereo unspecified)
> 100 µM (inactive)

# lookup: GI50 of N#CC(C(=O)C(=O)Nc1ccccc1)c1ccccc1 (stereo unspecified)
> 100 µM (inactive)

# lookup: GI50 of `O=C(/C=C(\C(=O)c1cccs1)c1cccs1)c1ccc(C(=O)/C=C(\C(=O)c2cccs2)c2cccs2)cc1`
> 100 µM (inactive)

# lookup: GI50 of CC1(C)C2CC(=O)C1(C)C(OCc1ccccc1)C2 (stereo unspecified)
> 100 µM (inactive)

# lookup: GI50 of `Cc1ccc2nc(/C=N/c3ccc(Cl)cc3)cc(C)c2c1`
2.12 µM (inactive)

# lookup: GI50 of `NCCc1ccc(S(=O)(=O)O)cc1[N+](=O)[O-]`
> 100 µM (inactive)

# lookup: GI50 of `Cn1cnc([N+](=O)[O-])c1Sc1nnnn1-c1ccccc1`
12.2 µM (inactive)

# lookup: GI50 of `CCc1ccccc1NC(=O)C1=C(C)NC(C)=C(C(=O)Nc2ccccc2CC)C1c1cccc([N+](=O)[O-])c1`
43.9 µM (inactive)

# lookup: GI50 of `N#Cc1cc(Sc2ccc(N)c(C#N)c2)ccc1N`
11.1 µM (inactive)

# lookup: GI50 of COC(=O)C1Cc2c([nH]c3ccccc23)[C@H](CC(C)C)N1 (stereo partly specified)
> 100 µM (inactive)

# lookup: GI50 of `c1cc(-c2cnc(-c3ccc4c(c3)CCCO4)o2)ccn1`
9.1 µM (inactive)

# lookup: GI50 of CCCCCCCCCCCCCCCCCC(=O)Nc1ccn(C2CCC(COP(=O)(O)O)O2)c(=O)n1 (stereo unspecified)
> 100 µM (inactive)

# lookup: GI50 of `c1ccc(COc2ccc3[nH]c4c5c6ccccc6nc-5c[nH]c4c3c2)cc1`
15.7 µM (inactive)

# lookup: GI50 of O=[N+]([O-])C1CC/C(=N/O)c2nonc21 (stereo unspecified)
> 10 µM (inactive)

# lookup: GI50 of `CCOC(=O)/C=C(/C(=O)OCC)n1cc(C)c(=O)[nH]c1=O`
13.2 µM (inactive)

# lookup: GI50 of `C[C@@H]1CCC[C@]2(C)O[C@H]2CC[C@@](C)(O)[C@@H]2CC3=C(CO)C(=O)O[C@H]3[C@H]1O2`
> 50 µM (inactive)

# lookup: GI50 of `COC(=O)C1=CCC[C@H]2[C@@]1(COC(C)=O)CC[C@@H](C)[C@]2(C)CC(=O)c1ccoc1`
10.9 µM (inactive)

# lookup: GI50 of `O=[N+]([O-])C(C(Cl)=C(Cl)Cl)=C(N1CCCCC1)N1CCCCC1`
> 100 µM (inactive)

# lookup: GI50 of `CS(=O)(=O)C1(Br)S(=O)(=O)OCCOS1(=O)=O`
> 100 µM (inactive)

# lookup: GI50 of `CCOC(=O)c1c(C)[nH]c2c1c(CN(C)C)c(O)c1nc(C)c(C)nc12`
18 µM (inactive)

# lookup: GI50 of `Cc1cccc(C(C)C)c1NC(=O)CCl`
> 100 µM (inactive)

# lookup: GI50 of `Cc1n2nc(N)sc2n[n+]1CC(=O)c1ccccc1`
> 100 µM (inactive)

# lookup: GI50 of CO[C@H]1O[C@@H]2OC3(C)CCC4[C@H](C)CCC([C@H]1C)[C@]42OO3 (stereo partly specified)
> 100 µM (inactive)

# lookup: GI50 of C(=C\C(Sc1ccccc1)c1ccccc1)/NNC1=NN=C(c2ccccc2)C(c2ccccc2)N1 (stereo unspecified)
65.3 µM (inactive)

# lookup: GI50 of `O=C(NO)c1coc2ccccc2c1=O`
78.5 µM (inactive)

# lookup: GI50 of `CCN(C(=S)N[C@@H](Cc1ccccc1)C(=O)N[C@@H](CC(C)C)C(=O)OC)c1ccccc1`
> 100 µM (inactive)

# lookup: GI50 of `COC(=O)c1ccc(/C=C2\Oc3ccccc3C2=O)cc1`
> 100 µM (inactive)

# lookup: GI50 of `Cc1cccc(C2=C/C(=C(\SS/C(C(=O)c3ccc(OCC(=O)O)c(Cl)c3Cl)=C3\C=C(c4cccc(C)c4)SS3)C(=O)c3ccc(OCC(=O)O)c(Cl)c3Cl)SS2)c1`
12.4 µM (inactive)

# lookup: GI50 of CCC(CO)COC(=O)/C=C/C(=O)OCC(CC)CO (stereo unspecified)
> 100 µM (inactive)

# lookup: GI50 of `C[Si]12OCCCN(CCO1)CCO2`
> 100 µM (inactive)

# lookup: GI50 of `Cn1nc2ccc3nccc(NCCNCCO)c3c2n1`
33.6 µM (inactive)

# lookup: GI50 of `Cc1cc(NS(=O)(=O)c2ccc(NC(=O)c3cccc4c(Nc5ccc(S(N)(=O)=O)cc5)c5ccccc5nc34)cc2)no1`
73.6 µM (inactive)

# lookup: GI50 of N#CC1=C(N)N(c2ccccc2)C(c2ccco2)C1(C#N)C#N (stereo unspecified)
19.3 µM (inactive)

# lookup: GI50 of `N#CC(C#N)=C1NC(=O)CC(=O)N1`
> 100 µM (inactive)

# lookup: GI50 of `COc1ccc(-c2nnc(-c3ccncc3)o2)cc1`
> 100 µM (inactive)
